Value source: paper PMC5540273

Tested on: MKNK2
Conditions Used: concentration: 1 μM, replicates: in singlicate; n = 1;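 also: KINOMEscan kinase panel screen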
Reported Metric: %Inh (%)

{"Compound": "Cc1c(Cn2c(C)c(C)n3c(=O)cc(N4CCOCC4)nc23)cccc1C(F)(F)F [GSK2328680]", "Number": 0}
{"Compound": "COc1ccc(CSc2nnc(-c3ccc4c(c3)CCO4)o2)cc1", "Number": 0}
{"Compound": "CCCCc1nn2ncccc2c1-c1ccnc(NC2CC2)n1 [GW684374]", "Number": 0}
{"Compound": "CC(C)c1ccc(O)cc1Nc1ccnc2ccc(C(F)(F)F)cc12 [GW482059]", "Number": 10}
{"Compound": "Cc1ccc(NC(=O)Nc2ccccc2F)cc1-c1ccc(C(=O)Nc2ccncc2)cc1 [GSK1398477]", "Number": 0}

###

Test system: MAP4K3
Conditions Used: concentration: 1 μM, replicates: in singlicate; n = 1
We label by threshold. Values of %Inh strictly beneath 2% are criterion met. Values of 2% and up are criterion not met.

{"Compound": "c1ccc(-c2ccnc3[nH]ccc23)cc1", "Label": "criterion not met"}
{"Compound": "FC(F)(F)c1ccccc1-c1cc(-c2c[nH]nc2-c2ccccn2)ccn1", "Label": "criterion met"}
{"Compound": "Cc1c(Cn2c(C)c(C)n3c(=O)cc(N4CCOCC4)nc23)cccc1C(F)(F)F", "Label": "criterion met"}
{"Compound": "COc1ccc(Nc2nccc(N3CCC(NC(=O)C(C)c4ccc(Cl)cc4)C3)n2)cc1 (stereo not drawn)", "Label": "criterion not met"}
{"Compound": "Cc1nccc(-c2c(-c3ccc(F)cc3)ncn2CCCN2CCOCC2)n1.Cl", "Label": "criterion met"}

###

System: ADCK3
Construct: gene CABC1
Conditions Used: concentration: 1 μM, replicates: in singlicate; n = 1
Class y: %Inh at least 10%. Class n: %Inh below 10%.

{"Compound": "COC(=O)C(Cc1ccccc1)NC(=O)NC1CCN(c2ccnc(Nc3ccc(F)cc3)n2)C1 (stereo not drawn) [GSK1379714]", "Label": "y"}
{"Compound": "Cn1cncc1C(=O)NC1CCN(c2ccnc(Nc3ccc(F)cc3)n2)C1 (stereo not drawn) [GSK1379717]", "Label": "n"}
{"Compound": "CS(=O)(=O)CCNCc1nc(-c2ccc3ncnc(Nc4ccc(OCc5ccccc5)c(Cl)c4)c3c2)cs1.Cl [GW582764]", "Label": "n"}
{"Compound": "Fc1ccc(-c2nc[nH]c2-c2ccncc2)cc1 [SB-217360]", "Label": "n"}
{"Compound": "CCn1c(-c2ccccc2)nc2cnccc21 [SB-733416]", "Label": "n"}
{"Compound": "COc1ccc(Nc2nccc(N3CCC(NC(=O)c4cc5ccccc5s4)C3)n2)cc1 (stereo not drawn) [GSK1379738]", "Label": "n"}
{"Compound": "CNc1nc(-c2ccc3c(N)n[nH]c3c2)cc(N2C[C@@H](C(=O)NC3CCCCC3)OC[C@H]2C)n1 [GSK2375584]", "Label": "y"}
{"Compound": "CSc1ccc(-c2nc3n(c2-c2ccncc2)CCC3)cc1 [SKF-105561]", "Label": "n"}
{"Compound": "Cl.Cl.Cl.N#Cc1ccc(CCNc2nccc(-c3cccc(CN4CCNCC4)c3)n2)cc1 [GSK2137462]", "Label": "y"}
{"Compound": "COc1cccc(C2=C(Nc3cc(Cl)c(O)c(Cl)c3)C(=O)NC2=O)c1 [SB-390767]", "Label": "n"}
{"Compound": "COc1ccc(Nc2nccc(NCCNC(=O)Nc3cc(C)ccc3C)n2)cc1 [GSK1379899]", "Label": "n"}
{"Compound": "COC(=O)c1cccc(NC(=O)NC2CCN(c3ccnc(Nc4ccc(F)cc4)n3)C2)c1 (stereo not drawn) [GSK1379725]", "Label": "n"}
{"Compound": "Nc1nccc(-c2c(-c3ccc(F)cc3)ncn2C2CCN(Cc3ccccc3)CC2)n1 [SB-219980]", "Label": "n"}
{"Compound": "Cc1ccc(NC(=O)Nc2ccc(Cl)cc2)cc1-c1ccc(C(=O)Nc2ccncc2)cc1 [GSK1398472]", "Label": "y"}
{"Compound": "CC(C)c1cc(-c2ccc3c(N)n[nH]c3c2)nc(N)n1 [GSK2250882]", "Label": "y"}
{"Compound": "Cc1ccc(NC(=O)Nc2ccccc2F)cc1-c1ccc(C(=O)Nc2ccncc2)cc1 [GSK1398477]", "Label": "y"}
{"Compound": "CNCc1ccc2nc(NC(=O)c3ccc(C(C)(C)C)cc3)cn2c1", "Label": "n"}
{"Compound": "Cc1cnc(N)c(/C=C/c2cncc(C(=O)NCCc3ccc(Cl)cc3Cl)c2)c1.Cl [GSK190937]", "Label": "y"}
{"Compound": "CNc1cc(-c2ccc3c(N)n[nH]c3c2)nc(N)n1 [GSK2224810]", "Label": "y"}
{"Compound": "c1ccc(-c2ccnc3[nH]ccc23)cc1 [SB-693578]", "Label": "n"}
{"Compound": "COc1cccc(NC(=O)Nc2ccc(C)c(-c3ccc(C(=O)Nc4ccncc4)cc3)c2)c1 [GSK1398474]", "Label": "y"}
{"Compound": "COc1ccc(CSc2nnc(-c3ccc4c(c3)CCO4)o2)cc1", "Label": "n"}
{"Compound": "O=C(Nc1n[nH]c2cc(-c3ccsc3)ccc12)C1CC1 [SB-732932]", "Label": "n"}
{"Compound": "CC(=O)c1cccc(NC(=O)NC2CCN(c3ccnc(Nc4ccc(F)cc4)n3)C2)c1 (stereo not drawn) [GSK1379710]", "Label": "y"}
{"Compound": "COc1ccc(Nc2nccc(N3CCC(NC(=O)C(C)c4ccc(Cl)cc4)C3)n2)cc1 (stereo not drawn) [GSK1379735]", "Label": "y"}
{"Compound": "COc1ccc(-c2coc3ccc(-c4nnc(C)o4)cc23)cc1", "Label": "n"}
{"Compound": "COC(=O)c1cccc(NC(=O)NC2CCN(c3ccnc(Nc4ccc(OC)cc4)n3)C2)c1 (stereo not drawn) [GSK1379746]", "Label": "y"}
{"Compound": "Cc1ccc(-c2nc(Nc3ccncc3)c3ccccc3n2)s1 [GSK189015]", "Label": "y"}
{"Compound": "Cc1nccc(-c2c(-c3ccc(F)cc3)ncn2CCCN2CCOCC2)n1.Cl [SB-282975]", "Label": "y"}

###

Tested on: TLK2
Conditions Used: concentration: 1 μM, replicates: in singlicate; n = 1
Recorded %Inh for the following molecules
Reported Metric: %Inh (%)

{"Molecule": "Cc1ccccc1-c1cc(-c2c[nH]nc2-c2ccccn2)ccn1 [GW680061]", "Number": 0}
{"Molecule": "CNC(=O)c1ccc(C)c(-n2c(C)cc(OCc3ccc(F)cc3F)c(Br)c2=O)c1", "Number": 0}
{"Molecule": "Cc1ccc(NC(=O)Nc2ccc(Cl)cc2)cc1-c1ccc(C(=O)Nc2ccncc2)cc1 [GSK1398472]", "Number": 0}
{"Molecule": "COc1cccc(C2=C(Nc3cc(Cl)c(O)c(Cl)c3)C(=O)NC2=O)c1 [SB-390767]", "Number": 0}
{"Molecule": "Cc1ccc(-c2nc(Nc3ccncc3)c3ccccc3n2)s1 [GSK189015]", "Number": 0}
{"Molecule": "Cn1cncc1-c1cc2c(Nc3ccc(OCc4ccccc4)cc3)ncnc2cn1 [GW281179]", "Number": 0}
{"Molecule": "CS(=O)(=O)Cc1ccc(Nc2nccc(-c3c(-c4cccc(NC(=O)C5CCCCC5)c4)nn4ncccc34)n2)cc1 [GSK350559]", "Number": 0}
{"Molecule": "CNc1cc(-c2ccc3c(N)n[nH]c3c2)nc(N)n1 [GSK2224810]", "Number": 20}
{"Molecule": "O=C(Nc1n[nH]c2nc(-c3ccco3)c(Br)cc12)C1CCN(Cc2ccccc2)C1.O=C(O)[C@H](O)[C@@H](O)C(=O)O (stereo not drawn) [SB-742034]", "Number": 6}
{"Molecule": "Cc1ccc(NC(=O)Nc2ccccc2F)cc1-c1ccc(C(=O)Nc2ccncc2)cc1 [GSK1398477]", "Number": 0}
{"Molecule": "Fc1ccc(-c2nn3cccc(F)c3c2-c2ccncc2)cc1 [GW475620]", "Number": 0}
{"Molecule": "CCc1ccc(-c2ccc3c(c2)-c2n[nH]cc2S(=O)(=O)N3C)cc1", "Number": 0}
{"Molecule": "COC(=O)c1cccc(NC(=O)NC2CCN(c3ccnc(Nc4ccc(OC)cc4)n3)C2)c1 (stereo not drawn) [GSK1379746]", "Number": 0}
{"Molecule": "COC(=O)C(NC(=O)NC1CCN(c2ccnc(Nc3ccc(F)cc3)n2)C1)c1ccccc1 (stereo not drawn) [GSK1379712]", "Number": 6}
{"Molecule": "COC(=O)C(Cc1ccccc1)NC(=O)NC1CCN(c2ccnc(Nc3ccc(F)cc3)n2)C1 (stereo not drawn) [GSK1379714]", "Number": 0}
{"Molecule": "Cn1cncc1C(=O)NC1CCN(c2ccnc(Nc3ccc(F)cc3)n2)C1 (stereo not drawn) [GSK1379717]", "Number": 0}
{"Molecule": "O=C(Nc1n[nH]c2nc(-c3cccs3)c(Br)cc12)C1CC1 [SB-735297]", "Number": 0}
{"Molecule": "FC(F)(F)c1ccccc1-c1cc(-c2c[nH]nc2-c2ccccn2)ccn1 [GW679396]", "Number": 0}
